- assay.summary: probe aNOTCH2 binding on compound microarray – biochemical, small-molecule microarray, 635/667 nm fluorescence, primary screen (AID 1121);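 note: score merges feature fluorescence read at 667 nm with its signal to noise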
- experimental.context: higher = more signal
# composite z-score per entry

{"molecule": "COc1ccc(C(O)C2C=CC3C(=O)N(c4ccccc4)C(=O)C3N2Nc2ccc(C#N)cc2)cc1OCc1ccccc1 (centres undefined)", "composite z-score": 0.131}
{"molecule": "CCOC(=O)C[C@H]1[C@H](OC(=O)c2cc3ccccc3oc2=O)[C@@H](NC(=O)CC(C)C)c2cc(OCCCO)ccc2N1C(=O)Cc1ccc(OC)cc1", "composite z-score": -0.146}
{"molecule": "CC(C)c1nc2cc(Br)ccc2c(=O)o1", "composite z-score": -0.0424}
{"molecule": "CC(C)N1C(=O)C[C@@](C(=O)NCCN2CCOCC2)(c2ccc([N+](=O)[O-])cc2)[C@H]1c1ccc(CO)cc1", "composite z-score": -0.0836}
{"molecule": "C=CC1c2cc(O)c(OC)cc2CCN1C (centres undefined)", "composite z-score": -0.126}
{"molecule": "O=C(NC1CC1)[C@@H]1c2ccccc2C(=O)N(CC23CC4CC(CC(C4)C2)C3)[C@H]1c1ccc(CO)cc1", "composite z-score": -0.0495}
{"molecule": "CC(C)(C)OC(=O)CC[C@]1(C(=O)NCC(O)CO)N=C(c2ccc(OCCCO)cc2)O[C@H]1c1ccccc1N=[N+]=[N-] (some centres undefined)", "composite z-score": 0.149}
{"molecule": "CC=CC(O)C1C=CC2C(=O)NC(=O)C2N1Nc1ccc(Cl)cc1Cl (centres undefined)", "composite z-score": -0.0698}
{"molecule": "CC(C)N1C(=O)c2ccccc2[C@](C)(C(=O)NCC(F)(F)F)[C@@H]1c1ccc(CO)cc1", "composite z-score": 0.0344}
